Measured melting point values are reported for all entries that follow.
Property: melting point

- COc1cc(N)c(Cl)cc1C(=O)NCC1(OC)CCN(CCCCCC(=O)c2ccccc2)CC1: 91 to 93 °C
- O=CN(O)C(CS(=O)(=O)c1ccc(Oc2ccc(OC(F)(F)F)cc2)cc1)CS(=O)(=O)N1CCCC1 (stereo not given): 120 to 123 °C
- Brc1ccc2c(c1)C1(c3ccccc3-c3ccccc31)c1ccccc1-2: 181 to 183 °C
- Cc1ccc(C(=O)OC(C)c2nc3c(c(=O)n(C)c(=O)n3C)n2C)c(C)n1 (stereo not given): 160 °C
- CC(=O)Nc1c(C(=O)c2ccccc2)[nH]c2ccc(F)cc12: 80 to 82 °C

###

Reported melting point values are given for each entry in this list.
Property: melting point

* Fc1ccc(Nc2ncnc3cnc(NC4CCCNC4)nc23)cc1Cl (stereo unspecified) | 194 to 199 °C
* Cc1ccn2c(C)c(-c3ccc4c(c3)NC(=O)C(C)O4)nc2c1 (stereo unspecified) | 254 to 256 °C
* COCCNC(=NC#N)Nc1ccc(C2=NNC(=O)CC2C)cc1 (stereo unspecified) | 196 to 197 °C
* COC(Cn1cncn1)(c1ccc(F)cc1F)C(F)(F)SCCO (stereo unspecified) | 76 to 79 °C
* CC1CC(=O)NN=C1c1ccc(-c2ccc(=O)[nH]n2)cc1 (stereo unspecified) | > 250 °C
* O=Cc1ccccc1-n1nnnc1CC(=O)C(F)(F)F | 128 °C

###

Property: melting point

* Nc1ncc(CN2CCN(c3cccc(Cl)c3)CC2)c(N)n1 | 222 to 226 °C
* COc1cc2c(cc1OC)N(C)C(=O)CN=C2c1cncc2ccccc12 | 131 to 135 °C
* COc1ccc(F)c2c1C=C(C#N)CO2 | 133 to 135 °C
* O=C(c1cccs1)C(Cc1ccccc1F)n1cncn1 (stereo unspecified) | 121 to 122 °C
* CCOCc1nc2c(N)nc(C)cc2n1NC(C)C | 139 to 141 °C
* CCCCCCCCCCCc1cc2ccc(C(=O)OCCCC)cc2[nH]1 | 73 to 76 °C
* COc1cc(C(C)=O)ccc1OCCCCN1CCC(c2noc3ccccc23)CC1 | 99 to 101 °C
* O=C1NC(=O)C(=Cc2ccccc2)S1 | 246 to 248 °C
* O=c1ncccn1Cc1ccc2ccccc2c1 | 136 to 145 °C
* COC(=O)C(CCSC)NC(=O)c1ccc(CS(=O)(=O)c2cccnc2)cc1-c1ccccc1 (stereo unspecified) | 152 to 154 °C
* O=c1[nH]c2cc(F)ccc2n1-c1cc(Cl)ccc1O | 256 to 260 °C

###

The following molecules are shown together with reported melting point values.
Property: melting point

* CCCCOC(=O)C(=O)c1cc(-c2ccc(S(C)(=O)=O)cc2)n(-c2ccccc2)c1C | 100 °C
* Nc1nc(Oc2ccccc2)nc2nc(-c3ccco3)nn12 | 250 to 252 °C
* O=c1c2ccc(Cl)cc2[nH]c2c(O)nn(-c3ccc(Cl)cc3Cl)c(=O)c12 | 360 to 361 °C
* CCn1nc(-c2ccc(F)cc2)c(-c2ccncc2)c1C(=O)N(C)Cc1ccccn1 | 144 to 147 °C
* CCc1ccnc2cc(OC)c(OCc3ccccc3)cc12 | 132 to 134 °C
* CC1CCC(C)N1CCNc1ccnc2cc(Cl)ccc12 (stereo not given) | 127 to 130 °C
* Cc1nc(N2CCN(Cc3nc(C)n(-c4ccccc4)n3)C2=O)sc1C(=O)NCc1ccccc1 | 139 to 141 °C
* COC(=O)c1cnc(C(=O)O)cn1 | 183 to 185 °C
* CC(=O)OC1CSC(Oc2ccc3sc(C)nc3c2)C(OC(C)=O)C1OC(C)=O (stereo not given) | 158 °C
* COC(=O)c1ccc(I)c2c(=O)c3ccccc3[nH]c12 | 189 to 191 °C

###

Measured melting point of individual entries
Property: melting point

- CCCNC(=O)C(CC)Cc1ccc2c(c1)c(Cc1ccc(C(=O)NS(=O)(=O)c3ccccc3C)cc1OC)cn2CCC (centres undefined): 93 to 105 °C
- O=C(Nc1ccc(Oc2ccnc(NC3CCCCC3)n2)c2ccccc12)c1cc(F)cc(N2CCCCC2)c1: 118 to 120 °C
- Cc1cccc(C(O)CN2CCNC2=S)c1 (centres undefined): 100 °C
- CC(C)(C)C(NC(=O)c1cccc2c1-c1ccccc1C2=O)Nc1c(Nc2cccnc2)c(=O)c1=O (centres undefined): 201 to 202 °C

###

Recorded melting point by entry
Property: melting point

• O=C1N(C(c2ccccc2)c2ccccc2)c2ccccc2C12COc1cc3c(cc12)OCCCO3 (stereo not drawn) = 165 to 168 °C
• CC(=O)SCC(=Cc1ccc(-c2ccccc2)cc1)C(=O)NCCC(=O)OCc1ccccc1 = 76 °C
• Cc1ccc(C2(O)CCCCC2C(c2ccccc2)N(C)C)cc1 (stereo not drawn) = 168 to 169 °C
• CCCc1nc2c(N)nc3ccccc3c2n1CCCCCC(N)=O = 210 to 211 °C
• COC(=O)c1cccc(Sc2ccc(N(C)C)cc2)c1 = 88 to 90 °C
• COc1cc(C(C)=O)ccc1OCCCN1CCN(c2n[nH]c3ccccc23)CC1 = 155 to 157 °C
• COc1cc(Cl)ccc1C(=O)Nc1ccc(-n2nc(C(F)(F)F)cc2C(F)(F)F)cc1 = 178 to 180 °C
• COC(=O)C1(NC(=O)OCc2ccccc2)CCC(=O)O1 (stereo not drawn) = 134 °C
• Cc1cc(C#N)ccc1-c1ccc(-c2nc3cc(C#N)ccc3[nH]2)cc1 = 269 to 270 °C
• COc1ccc(C(C)(O)c2cccc(OCc3nc(-c4ccccc4)oc3C)c2)c(OCC(=O)O)c1 (stereo not drawn) = 148 to 149 °C
• NC(=O)c1ccc(C(=O)C=C(c2cc(Cl)cc(Cl)c2)C(F)(F)F)cc1 = 156 to 160 °C
• CC(C)(COC(=O)COc1ccc(C(=O)CN2Cc3cc(C(N)=S)ccc3C2=O)cc1)NS(=O)(=O)c1cccnc1 = 197 to 198 °C
• NC(=O)CNC(=O)c1cccc(-c2ccnc3cc(Cc4cccc(C(F)(F)F)c4)sc23)c1 = 183 to 184 °C
• Cc1cc2c(s1)Nc1ccccc1NC2=S = 259 to 260 °C
• O=C(O)CCCc1cc2nc(C(F)(F)F)ccc2n1S(=O)(=O)c1cccc2ccccc12 = 195 °C
• CCn1ncc2c(NC)c3c(nc21)C(=NC)c1ccccc1CC3 = 233 to 235 °C
• COc1ccc(C=CC(=O)N[C@@H](Cc2ccccc2)C(=O)CSCc2ccsc2)c(OC)c1 = 142 to 143 °C
• CCN(CC)C(=O)Oc1nc(C)c2cc(OC)c(OC)cc2c1N = 206 to 207 °C
• CON(C)C(=O)c1cc(N)c(F)cc1Cl = 118 °C
• COc1cccc(-n2nc(Sc3ccc(Cl)cc3)c(C)c(C#N)c2=O)c1 = 148 to 149 °C
• O=C1CN(C(=O)C(Cl)Cl)N(Cc2ccc(Cl)c(Cl)c2)C(=O)N1 = 196 °C
• Cc1ccc(S(=O)(=O)OC2CCc3[nH]c4ccc(C)cc4c3C2)cc1 (stereo not drawn) = 125 to 127 °C
• CC(NC(=O)c1cc(OCC(F)(F)F)ccc1OCC(F)(F)F)C1CCCCN1 (stereo not drawn) = 95 to 97 °C
• COc1cc(OC)c(F)c(N)c1F = 78 to 79 °C
• COC(=O)c1ccc(Cc2c(OCc3ccc(-c4ccccc4-c4nnn[nH]4)cc3)cc(C)nc2C)cc1 = 144 to 145 °C
• Cn1c(=O)c2c(ncn2CCCCC(=O)CBr)n(C)c1=O = 106 to 109 °C
• Cc1sc2ncc(C(O)CC(O)c3ccccc3)n2c1C (stereo not drawn) = 152 to 153 °C
• NCCc1c[nH]c2cc(Cl)c(NC(N)=O)cc12 = 212 to 213 °C
• Cn1ncc2c1-c1c(Oc3ccc(OCc4ccc5ccccc5n4)cc3)sc(C(=O)O)c1CC2 = 214 to 215 °C
• COC(=O)c1ccc(Cn2c(C)cn(C3CCc4ccccc4C3)c2=S)cc1 (stereo not drawn) = 140 to 141 °C
• Cc1c(NC(=O)c2ccc(-c3ccc(F)cc3)cc2)ccc2cc(CN3CCCC3C3CCCCC3)cnc12 (stereo not drawn) = 204 to 205 °C
• Cc1ccc(-c2ccc(C)c(CN3CCN(C(c4ccccc4)c4ccccc4)CC3)c2)cc1 = 177 °C
• CC(c1cc(Cl)ccc1N1CCCCC1C)C(C(N)=O)c1ccc(C(=O)O)cc1 (stereo not drawn) = 195 to 198 °C
• NS(=O)(=O)NC(=O)N1C[C@H](NC(=O)Cc2ccccc2)C1=O = 137 °C
• CSc1nc(Cl)c([N+](=O)[O-])c(N2CCS(=O)CC2)n1 = 176 to 178 °C
• CCOC(=O)c1c(C(C)(C)O)nc(CC)n1Cc1ccc(-c2ccccc2-c2nnn[nH]2)cc1 = 166 to 167 °C
• COCCN1CCc2cc(OC)c(O)cc2C1C1(c2ccccc2Cl)CC1 (stereo not drawn) = 115 to 120 °C
• CCNCN1CN=C(c2ccc(OC)c(OC)c2)c2cc(OC)c(OC)cc21 = 128 to 130 °C
